- Tested on: BDF1 mice, P388 leukemia ip, median survival T/C
- measurement-protocol: NCI In Vivo Anticancer Drug Screen. Data for tumor model P388 Leukemia (intraperitoneal) in B6D2F1 (BDF1) mice
- condition-info: endpoint: median survival time; dose: 100.0 mg/kg/injection; schedule: Q04DX003 (ip); vehicle: Klucel (hydroxypropylcellulose) (HPC); higher = longer survival
Inconclusive results and toxic doses are left out.
Overview of recorded T/C for various molecules

C/C=C(/Cl)c1c(C)cc(C)c(CC(=O)O)c1C	87 % of control
COC(=O)c1c(O)cc(OC)cc1OC	100 % of control
O=C1/C(=C/c2ccccc2)CCCC1/C=C/c1ccccc1 (stereo not drawn)	100 % of control
COc1ccccc1NC(=O)c1ccc(Cl)cc1	100 % of control
Cc1cc(C)c(-c2cc(O)c(C)cc2O)c(C)c1	114 % of control
O=C(c1ccccc1)C1Cc2ccccc2C1=O (stereo not drawn)	100 % of control
c1ccc(C2=C(c3ccccc3)c3cccc4cccc2c34)cc1	115 % of control
C(=C/c1ccc(/C=C/c2ccccc2)cc1)/c1ccccc1	90 % of control
C/C=C(/C)N(C(C)=O)N(C(C)=O)c1ccc([N+](=O)[O-])cc1[N+](=O)[O-]	90 % of control
CC(=O)Nc1ccc(NC(=O)NCCCl)cc1	110 % of control

Known value: BDF1 mice, P388 leukemia ip, median survival T/C T/C of the molecule CC(C)=CCCC(C)=C(C(=O)O)C(=O)O equals 113 % of control

Tested on BDF1 mice, P388 leukemia ip, median survival T/C, the item C=CCNC(=S)Nc1cc(Cl)ccc1C showed T/C equal to 100 % of control

Sample CCOC(=O)C(C(=O)OCC)C1C=CCC1 (stereo not drawn) , system: BDF1 mice, P388 leukemia ip, median survival T/C. Its T/C is 95 % of control

----------
- Tested on: BDF1 mice, P388 leukemia ip, median survival T/C
- measurement-protocol: NCI In Vivo Anticancer Drug Screen. Data for tumor model P388 Leukemia (intraperitoneal) in B6D2F1 (BDF1) mice
- condition-info: endpoint: median survival time; dose: 12.5 mg/kg/injection; schedule: Q01DX009 (ip); vehicle: Klucel (hydroxypropylcellulose) (HPC)
Toxic doses and inconclusive results are not listed. Rule for the calls: active = survival T/C of 150% or more; inactive = T/C below 125% in these data.
// allowed return values: active, inactive

Query block: Write down the call the test reported for this compound. Item: CN(C)C(C#N)c1c[nH]c2ccccc12 (stereo not given)
Result block: inactive

Query block: Recorded test outcome, item CCNSc1ccccc1
Result block: inactive

Query block: State the result this test recorded for C[C@]12CC[C@H](O)C=C1CC[C@@H]1[C@@H]2CC[C@]2(C)C(c3ccc(=O)oc3)CC[C@]12O (stereo not given in full) .
Result block: inactive

Query block: What did the test return for CC(=O)OC1=CCC(C(C)(C)C)CC1 (stereo not given) ?
Result block: inactive

Query block: Field: outcome | Entry: N[C@H](C(=O)O)[C@H]1ON=C(Cl)[C@@H]1O
Result block: active

----------
Reported T/C values for a set of compounds
- System: BDF1 mice, P388 leukemia ip, median survival T/C
- measurement-protocol: NCI In Vivo Anticancer Drug Screen. Data for tumor model P388 Leukemia (intraperitoneal) in B6D2F1 (BDF1) mice
- condition-info: endpoint: median survival time; dose: 200.0 mg/kg/injection; schedule: Q01DX009 (ip); vehicle: saline with Tween-80; higher = longer survival
Toxic doses and inconclusive results are not listed.

Before answering, review these 10 worked examples.
Clc1ccc(-c2ncnc3c2Cc2ccccc2-3)cc1	116 % of control
O=C1Nc2ccccc2S/C1=C\c1ccc(C(F)(F)F)cc1	110 % of control
CCOC(=O)/C=C(C)/C=C/C=C(C)/C=C/c1c(C)cc(OC)c(C)c1C	98 % of control
CN(C)c1ccc(-c2c3ccccc3nc3ccccc23)cc1	106 % of control
Nc1nc(N)c2cc(S(=O)c3ccc4ccccc4c3)ccc2n1 (stereo unspecified)	104 % of control
COC(=O)c1c(C(=O)OC)c1=[N+]=[N-]	99 % of control
CCOC(=O)c1ccc(NCC#N)cc1	100 % of control
CCOC(=O)c1ccccn1	110 % of control
NC(Cc1cccs1)C(=O)O (stereo unspecified)	110 % of control
CC(C)CN(CC(C)C)C(=O)c1ccc(Cl)c(Cl)c1	94 % of control

Reading of T/C for Cc1ccc(S(=O)(=O)/C=C(/I)c2ccccc2)cc1 with BDF1 mice, P388 leukemia ip, median survival T/C: 106 % of control

Log: BDF1 mice, P388 leukemia ip, median survival T/C, compound FC(F)(F)c1ccc(C=Nc2ccc(Oc3ccccc3)cc2)cc1 , T/C = 91 % of control

I looked up OCC(F)(F)C(F)(F)C(F)(F)F and its T/C for BDF1 mice, P388 leukemia ip, median survival T/C was 104 % of control

----------
- Test system: BDF1 mice, P388 leukemia ip, median survival T/C
- measurement-protocol: NCI In Vivo Anticancer Drug Screen. Data for tumor model P388 Leukemia (intraperitoneal) in B6D2F1 (BDF1) mice
- condition-info: endpoint: median survival time; dose: 200.0 mg/kg/injection; schedule: Q01DX009 (ip); vehicle: saline with Tween-80; higher = longer survival
Inconclusive results and toxic doses are left out.
parameter: T/C

O=c1[nH]nc(NCCO)c2ccccc12	102 % of control
CCCCCCC(=O)/C=C/c1cccc(O)c1	95 % of control
O=C1Nc2ccccc2SC1C1SC(=S)N(Cc2ccccc2)C1=O (stereo unspecified)	86 % of control
O=C1CCCCCCC1Cc1cc(O)c(CC2CCCCCCC2=O)cc1O (stereo unspecified)	86 % of control
COc1ccc(CC(=O)NCCN(CCN(CCO)C(=O)Cc2ccc(OC)cc2)C(=O)Cc2ccc(OC)cc2)cc1	95 % of control
COc1cccc(/C(C)=N\Nc2ccc([N+](=O)[O-])cc2[N+](=O)[O-])c1OC	91 % of control

The compound listed as CCc1nc2ccccc2c(=O)n1C shows T/C equal to 101 % of control

// T/C value for Oc1ccccc1-c1nnc2sc3c(Cl)c4nn5c(-c6ccccc6O)nnc5sc4c(Cl)c3nn12 : 96 % of control

get_value(item= CCC(=O)O[C@H]1CC[C@H]2[C@@H]3[C@@H](C)CC4=CC(=O)CC[C@]4(C)[C@H]3CC[C@]12C , readout=T/C) returns 95 % of control

The reported T/C of the compound CCCCCCC(=O)/C=C/c1cccc(OC)c1 was 105 % of control

Input CCSC(=O)CC . Output T/C: 100 % of control

----------
- Test system: BDF1 mice, P388 leukemia ip, median survival T/C
- measurement-protocol: NCI In Vivo Anticancer Drug Screen. Data for tumor model P388 Leukemia (intraperitoneal) in B6D2F1 (BDF1) mice
- condition-info: endpoint: median survival time; dose: 100.0 mg/kg/injection; schedule: Q04DX003 (ip); vehicle: Klucel (hydroxypropylcellulose) (HPC); higher = longer survival
- Method: The antitumor activity of compounds was measured in mice bearing transplantable tumors. Survival or tumor size were measured and the results are expressed as the measurement made in the treated group (T) divided by the measurement made in the vehicle treated control group (C). The tumor model used in this assay is P388 Leukemia (intraperitoneal) in B6D2F1 (BDF1) mice
Inconclusive results and toxic doses are left out.
parameter: T/C

Worked examples follow.
Cc1cc(N(CCCl)CCCl)ccc1C=Nc1cccnc1	95 % of control
C[C@]12CC[C@H]3C(=CCc4cc(O)ccc43)[C@@H]1CCC2=O	95 % of control
COC(=O)c1cc(=O)n(-c2cccc(F)c2)c(SC)n1	114 % of control
N#CC(C#N)=Cc1ccc(Cl)c(Cl)c1	100 % of control
COc1cc(OC)c(N=Cc2ccc3c(c2)OCO3)cc1Cl	100 % of control
C1SCSCS1	100 % of control

Consider the record given below.
According to the records, this molecule CCN(CC)C(=O)c1ccc(C(Cl)(Cl)Cl)cc1 displays T/C of 100 % of control

----------
- System: BDF1 mice, P388 leukemia ip, median survival T/C
- measurement-protocol: NCI In Vivo Anticancer Drug Screen. Data for tumor model P388 Leukemia (intraperitoneal) in B6D2F1 (BDF1) mice
- condition-info: endpoint: median survival time; dose: 20.0 mg/kg/injection; schedule: Q01DX009 (ip); vehicle: Klucel (hydroxypropylcellulose) (HPC); higher = longer survival
Inconclusive results and toxic doses are left out.
parameter: T/C

Sample records with T/C:
COC1(c2ccco2)OC1(C)C (stereo not given)	90 % of control
CC(=O)Nc1cc(F)c([N+](=O)[O-])cc1[N+](=O)[O-]	110 % of control

Note to self: T/C recorded for O=c1[nH]cc(F)c(=O)[nH]1 was 100 % of control

// Clc1c(Cl)c(CBr)c(Cl)c(CBr)c1Cl : T/C value = 100 % of control

# molecule C[C@]12CC[C@H](O)C[C@@]1(O)CC[C@@H]1[C@@H]2CC[C@]2(C)[C@@H](c3ccc(=O)oc3)CC[C@]12O ; its T/C = 105 % of control
